Documented EC50 across a set of compounds
Molecular target: human Cystic Fibrosis Transmembrane Conductance Regulator (CFTR) harboring the ΔF508 mutation (Homo sapiens, UniProt P13569, DEL508-508)
Sequence (P13569 with tags, fused parts or gaps DEL508-508): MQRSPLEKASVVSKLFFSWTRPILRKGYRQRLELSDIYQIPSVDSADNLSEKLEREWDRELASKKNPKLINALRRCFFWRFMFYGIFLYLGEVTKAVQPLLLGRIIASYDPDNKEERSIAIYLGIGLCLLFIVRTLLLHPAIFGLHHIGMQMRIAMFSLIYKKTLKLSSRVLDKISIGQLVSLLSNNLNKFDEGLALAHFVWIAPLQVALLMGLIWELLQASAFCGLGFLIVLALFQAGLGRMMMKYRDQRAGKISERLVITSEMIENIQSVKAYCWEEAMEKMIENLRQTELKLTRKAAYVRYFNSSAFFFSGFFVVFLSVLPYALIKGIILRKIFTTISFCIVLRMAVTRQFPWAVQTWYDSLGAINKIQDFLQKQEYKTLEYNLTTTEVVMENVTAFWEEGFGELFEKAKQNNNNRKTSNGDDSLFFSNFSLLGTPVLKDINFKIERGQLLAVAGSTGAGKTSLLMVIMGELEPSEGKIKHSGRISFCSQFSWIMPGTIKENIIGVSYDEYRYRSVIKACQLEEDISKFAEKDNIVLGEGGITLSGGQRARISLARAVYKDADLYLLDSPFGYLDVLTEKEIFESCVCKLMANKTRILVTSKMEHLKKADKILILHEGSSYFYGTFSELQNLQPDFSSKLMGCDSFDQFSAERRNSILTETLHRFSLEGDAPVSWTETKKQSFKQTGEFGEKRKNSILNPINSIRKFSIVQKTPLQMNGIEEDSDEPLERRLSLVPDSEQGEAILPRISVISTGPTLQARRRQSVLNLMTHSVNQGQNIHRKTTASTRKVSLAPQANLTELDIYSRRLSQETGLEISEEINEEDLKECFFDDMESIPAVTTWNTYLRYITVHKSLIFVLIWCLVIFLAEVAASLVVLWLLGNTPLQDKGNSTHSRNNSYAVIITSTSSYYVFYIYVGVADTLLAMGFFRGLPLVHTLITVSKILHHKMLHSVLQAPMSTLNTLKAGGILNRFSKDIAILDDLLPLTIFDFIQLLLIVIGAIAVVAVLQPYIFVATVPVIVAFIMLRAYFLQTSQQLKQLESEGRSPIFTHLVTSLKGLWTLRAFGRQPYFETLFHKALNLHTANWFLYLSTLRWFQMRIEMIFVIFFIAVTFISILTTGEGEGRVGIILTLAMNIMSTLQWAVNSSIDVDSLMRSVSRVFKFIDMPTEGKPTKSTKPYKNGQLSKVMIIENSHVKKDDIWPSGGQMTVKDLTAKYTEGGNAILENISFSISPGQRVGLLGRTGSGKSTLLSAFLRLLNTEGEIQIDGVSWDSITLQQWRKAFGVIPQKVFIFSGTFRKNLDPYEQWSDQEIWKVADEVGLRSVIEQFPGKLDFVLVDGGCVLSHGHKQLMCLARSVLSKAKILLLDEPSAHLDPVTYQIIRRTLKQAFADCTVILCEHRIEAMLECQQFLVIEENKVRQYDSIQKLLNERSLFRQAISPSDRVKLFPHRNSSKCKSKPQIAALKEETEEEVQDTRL
Assay: H441 cell ΔF508-CFTR-HRP cell surface assay (Emax and EC50)
Quick reminder: number only, in µM, skip the unit.

> print(dat)
                                   compound  measured.metric  recorded.number
1  CC(C)(SCC1CC1(F)F)[C@H](NC(=O)c1ccc2ccccc2c1OCc1ccc(C(F)(F)F)cc1)C(=O)O (some centres unmarked) [Example 163]             EC50              0.7

Read the next record carefully.
Look up and report measured EC50 for this entry: CC(C)(C)[C@@H](NC(=O)c1ccc2ccc(Cl)cc2c1OCc1ccc(OC(F)(F)F)cc1)C(=O)O [Example 285]
0.8
